- test.target: DNA topoisomerase 1 (Homo sapiens, UniProt P11387)
- Sequence (P11387 whole entry): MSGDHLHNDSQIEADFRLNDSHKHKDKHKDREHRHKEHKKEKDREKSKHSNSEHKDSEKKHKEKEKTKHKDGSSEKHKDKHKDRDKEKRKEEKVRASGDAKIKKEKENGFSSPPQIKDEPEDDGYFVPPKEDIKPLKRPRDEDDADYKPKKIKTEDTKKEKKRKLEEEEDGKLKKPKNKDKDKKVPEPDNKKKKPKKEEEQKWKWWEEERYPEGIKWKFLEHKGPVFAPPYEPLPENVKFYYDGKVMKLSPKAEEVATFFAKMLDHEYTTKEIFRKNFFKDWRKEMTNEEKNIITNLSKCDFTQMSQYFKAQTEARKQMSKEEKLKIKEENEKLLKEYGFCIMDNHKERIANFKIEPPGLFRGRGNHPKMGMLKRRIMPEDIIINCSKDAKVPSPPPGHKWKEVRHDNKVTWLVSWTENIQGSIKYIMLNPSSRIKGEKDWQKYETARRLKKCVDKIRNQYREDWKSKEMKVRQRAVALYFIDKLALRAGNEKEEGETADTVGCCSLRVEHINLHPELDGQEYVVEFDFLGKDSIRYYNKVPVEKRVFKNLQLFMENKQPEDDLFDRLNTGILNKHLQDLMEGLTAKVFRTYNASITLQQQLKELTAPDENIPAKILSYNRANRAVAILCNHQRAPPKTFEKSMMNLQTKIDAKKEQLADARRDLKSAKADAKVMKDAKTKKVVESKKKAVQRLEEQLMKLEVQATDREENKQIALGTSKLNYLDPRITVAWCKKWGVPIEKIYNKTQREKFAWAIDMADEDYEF
In this section we review reported IC50 values for a set of compounds.

# count of solved cases: 5
CC(C)=CC=C(OC(=O)c1ccccc1)c1cc(O)c2c(O)ccc(O)c2c1O    153 µM
CCC/C=C/C(=O)OC(=CC=C(C)C)c1cc(O)c2c(O)ccc(O)c2c1O    153 µM
CCCCCCCC(=O)OC(=CC=C(C)C)c1cc(O)c2c(O)ccc(O)c2c1O    > 625 µM
CCCCCCCCCCCCCCCC(=O)OC(=CC=C(C)C)c1cc(O)c2c(O)ccc(O)c2c1O    > 625 µM
CCCCC/C=C/C/C=C/CCCCCCCC(=O)OC(=CC=C(C)C)c1cc(O)c2c(O)ccc(O)c2c1O    > 625 µM

Next, consider the following compound.
Which measured IC50 value corresponds to CCCCCCCCCCCC(=O)OC(=CC=C(C)C)c1cc(O)c2c(O)ccc(O)c2c1O ?
> 625 µM

These entries and their values trace back to BindingDB's records for doi:10.1021/jm00006a025.
